These data points were gathered from patent US4874773A.

# Tested on: Spontaneously hypertensive male rats
# Test Description: Experiment 1-1 Hypotensive activity (oral, conscious spontaneously hypertensive rats)
# Type: in vivo, rat
# Setup Conditions: 10 mg/kg oral
Measured Endpoint: Recovering time (h)
Numbers only, in h.

See these solved cases before continuing.
Molecule | Recovering time, h
CCCCOC(=O)C1=C(C)NC(C)=C(C(=O)NCCC)C1c1cccc([N+](=O)[O-])c1 (stereo not drawn) | 1.0
CC1=C(C(=O)NC(C)C)C(c2ccccc2[N+](=O)[O-])C(C(=O)OC(C)C)=C(C)N1 (stereo not drawn) | 1.5

Provide Recovering time values for the following items, in order.
1. CCCCOC(=O)C1=C(C)NC(C)=C(C(=O)NC(C)C)C1c1cccc([N+](=O)[O-])c1 (stereo not drawn)
2. COC(=O)C1=C(C)NC(C)=C(C(=O)OC)C1c1ccccc1[N+](=O)[O-] [Compound A, reference compound]
3. CCCCOC(=O)C1=C(C)NC(C)=C(C(=O)NC(C)C)C1c1ccccc1[N+](=O)[O-] (stereo not drawn)

5.0
4.0
5.0
